TESTED SYSTEM: human ether-à-go-go-related gene (hERG) potassium channel (human, UniProt Q12809);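 note: peak tail current of the secondary pulse compared with the same well before compound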
Sequence (Q12809 whole entry, looked up): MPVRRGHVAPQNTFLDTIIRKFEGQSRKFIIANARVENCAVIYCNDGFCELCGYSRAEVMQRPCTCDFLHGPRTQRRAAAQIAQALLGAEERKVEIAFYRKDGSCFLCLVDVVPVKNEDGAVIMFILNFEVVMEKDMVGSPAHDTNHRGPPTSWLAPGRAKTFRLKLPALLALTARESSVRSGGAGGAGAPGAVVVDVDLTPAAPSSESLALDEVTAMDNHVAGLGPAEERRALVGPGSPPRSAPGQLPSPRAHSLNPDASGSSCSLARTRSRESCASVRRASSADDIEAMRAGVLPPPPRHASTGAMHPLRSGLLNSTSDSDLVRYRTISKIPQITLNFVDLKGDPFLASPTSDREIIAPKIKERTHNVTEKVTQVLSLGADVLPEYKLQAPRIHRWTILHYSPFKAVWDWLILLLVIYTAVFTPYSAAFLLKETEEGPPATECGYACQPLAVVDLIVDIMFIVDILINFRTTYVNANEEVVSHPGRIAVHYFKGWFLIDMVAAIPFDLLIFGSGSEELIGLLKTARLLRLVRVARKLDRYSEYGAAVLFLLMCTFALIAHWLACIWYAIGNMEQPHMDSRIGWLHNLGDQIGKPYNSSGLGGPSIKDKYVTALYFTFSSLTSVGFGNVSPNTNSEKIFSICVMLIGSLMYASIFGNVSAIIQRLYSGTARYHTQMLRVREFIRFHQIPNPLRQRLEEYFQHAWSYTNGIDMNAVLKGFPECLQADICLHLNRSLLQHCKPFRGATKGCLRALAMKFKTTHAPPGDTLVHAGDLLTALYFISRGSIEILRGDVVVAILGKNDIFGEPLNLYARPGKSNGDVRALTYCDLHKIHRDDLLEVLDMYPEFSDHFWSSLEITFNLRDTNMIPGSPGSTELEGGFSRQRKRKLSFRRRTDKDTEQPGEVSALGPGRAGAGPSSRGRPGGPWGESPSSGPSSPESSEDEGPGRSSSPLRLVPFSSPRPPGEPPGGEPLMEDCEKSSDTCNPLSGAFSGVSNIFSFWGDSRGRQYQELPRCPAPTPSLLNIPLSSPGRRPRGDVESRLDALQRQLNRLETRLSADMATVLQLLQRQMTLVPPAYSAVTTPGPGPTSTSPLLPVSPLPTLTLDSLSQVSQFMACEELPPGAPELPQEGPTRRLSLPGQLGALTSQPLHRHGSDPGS
TEST METHOD NOTES: primary screen, population patch clamp on CHO cells stably expressing hERG; higher = less effect of the substance
The whole screen tested about 310,000 compounds, of which about 14,000 (4.5%) showed an effect of 50% or more. The effect is printed as a negative number. Only a selection was taken, and strong results are over-represented in it overall.
READOUT LABEL: hERG current change (%, negative = inhibition) at 10uM (%)
Your answer should be a plain number; it is taken to be in %.

>>> assay_value("CCN(CC(=O)NCc1ccco1)S(=O)(=O)c1ccc(F)cc1")
5.61
>>> assay_value("CCOc1ccccc1CNn1cnnc1")
2.62
>>> assay_value("CCN(CC(=O)NCc1ccco1)S(=O)(=O)c1ccc(OC)cc1")
3.31
>>> assay_value("CCN(CC(=O)NCc1ccc(F)cc1)S(=O)(=O)c1ccc(C)cc1")
-43.6
>>> assay_value("Cc1ccc(C(=O)N(CCCN(C)C)c2nc3ccc(Cl)cc3s2)cc1C.Cl")
-56.4
>>> assay_value("COc1ccc([C@H]2CC(=O)C=C(c3cccc(C(C)C)c3)C2)cc1")
-2.79
>>> assay_value("COc1ccc(Nc2nc(C)cc(C)n2)cc1Cl.Cl")
0.588
>>> assay_value("O=C(NC(=O)c1ccccc1)Nc1ccccc1O")
14.7
>>> assay_value("CN(C)CCN(C(=O)c1ccc(S(=O)(=O)N(C)c2ccccc2)cc1)c1nc2ccc(Cl)cc2s1.Cl")
-13
>>> assay_value("COc1ccc(S(=O)(=O)N(CC(=O)NCc2cccnc2)Cc2ccccc2)cc1")
-76.5

Query: Answer with the recorded hERG current change (%, negative = inhibition) at 10uM of "CS(=O)(=O)N(CCc1ccccc1)CC(=O)NCc1ccco1" only.
Response: -3.21

Query: Answer with the recorded hERG current change (%, negative = inhibition) at 10uM of O=C(Nc1ccc(S(=O)(=O)Nc2ncccn2)cc1)C1COc2ccccc2O1 (stereo not drawn) only.
Response: 11.1

Query: Answer with the recorded hERG current change (%, negative = inhibition) at 10uM of "O=C(CN(Cc1ccccc1)S(=O)(=O)c1ccc(Br)cc1)NCc1ccco1" only.
Response: -51.6

Query: Answer with the recorded hERG current change (%, negative = inhibition) at 10uM of "CCN(CC(=O)NCc1cccnc1)S(=O)(=O)c1ccc(OC)cc1" only.
Response: -28.3

Query: Answer with the recorded hERG current change (%, negative = inhibition) at 10uM of "COc1ccc(-c2cc(C(F)(F)F)c3c(N)c(C(=O)NCCSC)sc3n2)cc1" only.
Response: -10.7

Query: Answer with the recorded hERG current change (%, negative = inhibition) at 10uM of "Cc1ccc(C(=O)CSc2nnnn2C(C)C)c(C)c1" only.
Response: -3.38

----------
TESTED SYSTEM: human ether-à-go-go-related gene (hERG) potassium channel (human, UniProt Q12809);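 note: peak tail current of the secondary pulse compared with the same well before compound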
TEST METHOD NOTES: primary screen, population patch clamp on CHO cells stably expressing hERG; higher = less effect of the substance
Description: Briefly, Chinese hamster ovary (CHO) cells stably expressing the hERG channel were dislodged from tissue culture flasks and dispensed into PPC plates. […] During the recording, background leak currents were estimated by a 100 ms step to -80 mV from an initial holding potential of -70 mV and subtracted from the subsequent current measurement. The campaign was conducted in two phases using slight differences in recording protocol. […]
Out of some 310,000 compounds screened, about 14,000 (4.5%) showed an effect of 50% or more. Effects have a minus sign here. Many of the other results were omitted from the sample, so strong results are more common in it than they were.
hERG current change (%, negative = inhibition) at 10uM vs -20%: at or above is Y, below is N.

>>> group_label("Cc1nnc(OCc2nc3ccccc3n2C)c2ccccc12")
"N"
>>> group_label("CC(C)[C@H](NC(=O)c1ccc(F)cc1)C(=O)N(C)Cc1cccs1")
"Y"
>>> group_label("CC(=O)c1cccc(NC(=O)NCc2ccco2)c1")
"Y"
>>> group_label("O=C(O)CSc1ncccc1C(=O)O")
"N"

Please look at the following compound next.
Query: Assess whether reported hERG current change (%, negative = inhibition) at 10uM for "O=C(O)c1cccnc1SCc1ccccc1" sits at -20% or higher.
Response: Y

----------
TESTED SYSTEM: human ether-à-go-go-related gene (hERG) potassium channel (human, UniProt Q12809);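 note: peak tail current of the secondary pulse compared with the same well before compound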
TEST METHOD NOTES: primary screen, population patch clamp on CHO cells stably expressing hERG; higher = less effect of the substance
The campaign covered roughly 310,000 compounds. About 14,000 (4.5%) showed an effect of 50% or more. The effect is printed as a negative number. For the sample, strong results were picked, then their nearest neighbours and some compounds at random.
# hERG current change (%, negative = inhibition) at 10uM per entry
Your answer should be a plain number; it is taken to be in %.

Example entries and their recorded answers appear below.
>>> assay_value("O=C(Nc1ccccc1N1CCCCC1)c1cc(S(=O)(=O)N2CCOCC2)ccc1Cl")
-4.01
>>> assay_value("CCn1cc(C(=O)NCCCOC)c(=O)c2cc(S(=O)(=O)N3CCC(C)CC3)ccc21")
-10.3

Query: Answer with the recorded hERG current change (%, negative = inhibition) at 10uM of "Cc1ccc(C)c(CN2CCC(CNC(=O)CCc3nnc4ccc(N5CCCCC5)nn34)CC2)c1" only.
Response: -30.3

Query: Answer with the recorded hERG current change (%, negative = inhibition) at 10uM of CCn1cc(C(=O)N2CCc3ccccc32)c(=O)c2cc(S(=O)(=O)N3CC(C)CC(C)C3)ccc21 (centres unmarked) only.
Response: -43.8

Query: Answer with the recorded hERG current change (%, negative = inhibition) at 10uM of "CCOC(=O)Cc1cc(OC)c(OC)cc1Cc1cc(OC)c(OC)cc1CC(=O)OCC" only.
Response: 9.74

Query: Answer with the recorded hERG current change (%, negative = inhibition) at 10uM of "CCn1cc(C(=O)NCCCN2CCCCCC2)c(=O)c2cc(S(=O)(=O)N3CCc4ccccc4C3)ccc21" only.
Response: -77.7

Query: Answer with the recorded hERG current change (%, negative = inhibition) at 10uM of "CCn1cc(C(=O)N2CCc3ccccc3C2)c(=O)c2cc(S(=O)(=O)N3CCCCC3)ccc21" only.
Response: -40.7

Query: Answer with the recorded hERG current change (%, negative = inhibition) at 10uM of CCC(C)(C)NC(=O)C(c1ccc(OC)cc1)N(C(=O)CCC(=O)Nc1cc(C)on1)C(C)(C)C (centres unmarked) only.
Response: -27.1

----------
TESTED SYSTEM: human ether-à-go-go-related gene (hERG) potassium channel (human, UniProt Q12809);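 note: peak tail current of the secondary pulse compared with the same well before compound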
TEST METHOD NOTES: primary screen, population patch clamp on CHO cells stably expressing hERG; higher = less effect of the substance
Out of some 310,000 compounds screened, about 14,000 (4.5%) showed an effect of 50% or more. Effects have a minus sign here. The full list was thinned out, with strong results kept by preference.
READOUT LABEL: hERG current change (%, negative = inhibition) at 10uM (%)
Your answer should be a plain number; it is taken to be in %.

Example entries and their recorded answers appear below.
>>> assay_value("Cc1cc(NC(=O)CN2CCC(n3nnc4cc(C(F)(F)F)ccc43)CC2)no1")
-50
>>> assay_value("Cc1nc2cc(C(F)(F)F)ccc2n1C1CCN(CC(=O)N2CCOCC2)CC1")
-44.4
>>> assay_value("CC12CCC(C(=O)N3CCCCCC3)(OC1=O)C2(C)C (stereo not shown)")
13.1
>>> assay_value("Cn1nccc1C(=O)N1CCC(Cc2ccccc2)CC1")
-9.69
>>> assay_value("O=C(O)c1ccc(Oc2ccccc2)o1")
23.2

Query: Answer with the recorded hERG current change (%, negative = inhibition) at 10uM of "Cc1nc2cc(C(F)(F)F)ccc2n1C1CCN(CC(=O)N2CCCC2)CC1" only.
Response: -13.1

Query: Answer with the recorded hERG current change (%, negative = inhibition) at 10uM of "O=C1N(Cc2cccc(Cl)c2)C[C@@H]2C[C@@H](c3ccco3)N3CCC[C@@]123" only.
Response: -25.9

Query: Answer with the recorded hERG current change (%, negative = inhibition) at 10uM of "CCc1nc(C)c(C#N)c2cc(OC)c(OC)cc12" only.
Response: 1.21

Query: Answer with the recorded hERG current change (%, negative = inhibition) at 10uM of CCc1ccc(C(C)NC(=O)/C(C#N)=C\c2cn[nH]c2-c2ccccc2)cc1 (stereo not shown) only.
Response: -1.91

Query: Answer with the recorded hERG current change (%, negative = inhibition) at 10uM of "CC(C)n1cc([C@@H]2C[C@H]3CN(Cc4cccc(Cl)c4)C(=O)[C@]34CCCN24)cn1" only.
Response: -33.7
